Source: the Human Domainome abundance scans (Beltran et al. 2025)

B1: Intersectin-1, residues 1156 to 1213; numbered along this chain, Q15811 (parent)
chain: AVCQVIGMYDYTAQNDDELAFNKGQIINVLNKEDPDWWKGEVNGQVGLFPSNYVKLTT

- Variants of: B1
- procedure text: abundance fitness (aPCA) (normalised: wild type 0, dead -1); higher = more abundant; growth selection in yeast, the domain comes from the species named
- run parameters: Homo sapiens
The label depends only on abundance fitness: Met if it is at least -0.3, Not met if it is smaller.

Request: Evaluate AVCQVIGMYDYTAQNDDELAFNKGQIINVSNKEDPDWWKGEVNGQVGLFPSNYVKLTT [L30S] : abundance fitness at minimum -0.3?
Response: Not met

Request: Evaluate AVCQVIGMYDYTAQNDDELAFNKGQIINVLNKEDPDWWKGEVNGSVGLFPSNYVKLTT [Q45S] : abundance fitness at minimum -0.3?
Response: Met

Request: Evaluate AVCQMIGMYDYTAQNDDELAFNKGQIINVLNKEDPDWWKGEVNGQVGLFPSNYVKLTT [V5M] : abundance fitness at minimum -0.3?
Response: Not met

Request: Evaluate TVCQVIGMYDYTAQNDDELAFNKGQIINVLNKEDPDWWKGEVNGQVGLFPSNYVKLTT [A1T] : abundance fitness at minimum -0.3?
Response: Met

Request: Evaluate AVCQVIGMYDYTAQNDDELAFNKGQIENVLNKEDPDWWKGEVNGQVGLFPSNYVKLTT [I27E] : abundance fitness at minimum -0.3?
Response: Not met

Request: Evaluate AVCQVIGMYDYTAQNDDELAFNKGQIINVLNKPDPDWWKGEVNGQVGLFPSNYVKLTT [E33P] : abundance fitness at minimum -0.3?
Response: Not met

Request: Evaluate AVCQVIGMYDYTAQNDDELAFNKGQIINVLNKEDPDWWKGEVNGQVGYFPSNYVKLTT [L48Y] : abundance fitness at minimum -0.3?
Response: Met

Request: Evaluate AVCQVIGMYDYTAQNDDELAFNKGQIINVLNKEDPDWWKGEVNGQVGLFPSNKVKLTT [Y53K] : abundance fitness at minimum -0.3?
Response: Met

Request: Evaluate AVCQVIGMYDYTAQNDDEDAFNKGQIINVLNKEDPDWWKGEVNGQVGLFPSNYVKLTT [L19D] : abundance fitness at minimum -0.3?
Response: Not met

Request: Evaluate AVCQVIGMYDYTAQNDDELAFNCGQIINVLNKEDPDWWKGEVNGQVGLFPSNYVKLTT [K23C] : abundance fitness at minimum -0.3?
Response: Met

Request: Evaluate AVCVVIGMYDYTAQNDDELAFNKGQIINVLNKEDPDWWKGEVNGQVGLFPSNYVKLTT [Q4V] : abundance fitness at minimum -0.3?
Response: Not met

Request: Evaluate AVCQVIGMYDYTAQNDDELAFNKGQIINVLNKEYPDWWKGEVNGQVGLFPSNYVKLTT [D34Y] : abundance fitness at minimum -0.3?
Response: Not met

Request: Evaluate AVCQVIGMYDYTAQNDDELAFNKGQIINVLNKEDPDWWKGEVNGQVGLFPSEYVKLTT [N52E] : abundance fitness at minimum -0.3?
Response: Met

Request: Evaluate AVCQVIGMYDYTIQNDDELAFNKGQIINVLNKEDPDWWKGEVNGQVGLFPSNYVKLTT [A13I] : abundance fitness at minimum -0.3?
Response: Not met
